- System: SW-620 colon
- PROTOCOL_SUMMARY: NCI-60 one-dose screen, 48 h (100 = growth as untreated, 0 = no growth, -100 = all killed)
- CONDITION_LABEL: 10 µM unless noted
About 83,000 compounds went through this panel and 20% of them were active in at least one assay; those are over-represented in the sample as a whole.
Tick Satisfied if growth is 80% or greater. Tick Not satisfied if growth is less than 80%.

SAMPLE_SMILES	CATEGORY
Nc1nc2c([nH]1)c1[nH]c3ccccc3c1c1[nH]c3ccccc3c21	Not satisfied
CCOP(=O)(OCC)c1nc(-c2ccccc2)oc1NCc1cccnc1	Satisfied
O=C(CCCCCCN1CC(=O)N2[C@H](c3cc(Br)cs3)c3[nH]c4ccccc4c3C[C@H]2C1=O)NO	Not satisfied
CCOC(=O)c1cnc2ccccc2c1Cl	Satisfied
O=[N+]([O-])/C(=C/C=C/c1ccccc1)c1ccccc1	Not satisfied
O=C1C(Cl)=C(Oc2ccccc2)C(=O)c2ccccc21	Not satisfied
O=C(Cn1cc(CN2CCCCCC2)nn1)Nc1ccc2c(ccn2Cc2ccccc2)c1	Satisfied
COc1cccc(/C=C/C(=O)c2cc3c(N)c(C(=O)Nc4ccccc4)sc3nc2C)c1	Not satisfied
COc1cc(C(=O)n2nc(N3CCN(C)CC3)c3cc(N)ccc32)cc(OC)c1OC	Not satisfied
Cc1ccc(-c2csc(NC(=O)CN3CCN(c4cc5c(cc4F)c(=O)c(C(=O)O)cn5C4CC4)CC3)n2)cc1	Not satisfied
CCN1CCN(Cc2cn(CC(=O)Nc3ccc4c(ccn4Cc4ccccc4)c3)nn2)CC1	Satisfied
N#Cc1c(-c2ccc(Cl)cc2)nc(NN=Cc2cccc(O)c2)nc1N1CCOCC1	Not satisfied
Clc1ccc(CNc2c3ccccc3nc3ccccc23)cc1	Not satisfied
CO/N=C(/C)c1ccc(NC(=O)CSc2nnc(-c3ccncc3)n2-c2ccccc2)cc1	Satisfied
CC(=O)n1nc(C(=O)OC(C)C)c2cc(C)c(C)cc21	Satisfied

----------
- Tested on: SF-295 CNS
- PROTOCOL_SUMMARY: NCI-60 one-dose screen, 48 h (100 = growth as untreated, 0 = no growth, -100 = all killed)
- CONDITION_LABEL: 10 µM unless noted
Compounds without any hit were thinned out: in the full panel of roughly 83,000, 20% have a hit.
MEASURED_ENDPOINT: growth (%)

SAMPLE_SMILES	RESULT_NUMBER
COC(=O)c1cc(-c2ccccc2)[nH]c1N/N=C/c1c(Cl)cccc1Cl	-59.5
O=C(NCCCCNC(=O)OCc1ccc2c(Cl)cc(Cl)c(O)c2n1)OCc1ccc2c(Cl)cc(Cl)c(O)c2n1	22.8
C#Cc1cccc(Nc2ncnc3ccc(-c4cncc(NS(C)(=O)=O)c4)cc23)c1	37.6
CCCCCCCCn1ccc2cc(NC(=O)Cn3cc(CN4CCCCC4)nn3)ccc21	-66.5
CO[C@]12C=C/C(=C(/C(=O)OCc3cccnc3)C(=O)CCCCCCCC[C@@]3(OC)C=C/C(=C(/C(=O)OCc4cccnc4)C(=O)CCCCCCCC1)O3)O2	-0.607
COc1ccc(-c2nnc3n(C)c(=O)c4ccccc4n23)cc1N	10.7

----------
- System: A549/ATCC NSCLC
- PROTOCOL_SUMMARY: NCI-60 one-dose screen, 48 h
- CONDITION_LABEL: 10 µM unless noted
About 83,000 compounds went through this panel and 20% of them were active in at least one assay; those are over-represented in the sample as a whole. Active and inactive are the calls of the source. Rule for the calls: active = growth percent below 10; inactive = the rest.
Classes used: 1.0 (active), 0.0 (inactive)

MOLECULE	ASSAY_SYSTEM	CATEGORY
Cc1ccc(Sc2oc(-c3ccc(C)cc3)nc2[P+](c2ccccc2)(c2ccccc2)c2ccccc2)cc1	A549/ATCC NSCLC	1.0
O=Nc1c(-c2c(O)[nH]c3ncccc23)[nH]c2ccccc12	A549/ATCC NSCLC	0.0
O=C1c2cccnc2C(=O)c2c1c(C(=O)NCCn1ccnc1)c1ccccn21	A549/ATCC NSCLC	1.0
C1=C(N2CCCC2)CCC1	A549/ATCC NSCLC	0.0
CN1CCN(C(=O)OCc2ccc3c(Cl)cc(Cl)c(O)c3n2)CC1	A549/ATCC NSCLC	0.0
Cc1cccc(N2CCN(CC(O)COc3ccc(Cl)cc3)CC2)c1 (stereo unspecified)	A549/ATCC NSCLC	0.0

----------
- Tested on: SN12C renal
- PROTOCOL_SUMMARY: NCI-60 one-dose screen, 48 h
- CONDITION_LABEL: 10 µM unless noted
This is part of a sample that, as a whole, favours compounds with a hit. Of some 83,000 tested, about 20% had one in any assay. Activity calls are given as the source filed them. Rule for the calls: active = growth percent below 10; inactive = the rest.
Classes used: active, inactive

COMPOUND	CATEGORY
O=C1CC(N2C(=O)/C(=C/C(Cl)=C\c3ccc([N+](=O)[O-])cc3)SC2=S)C(=O)N1c1ccc(Cl)cc1 (stereo not drawn)	active
CCOC(=O)c1nc(Nc2ccc(NC(=O)Nc3ccc(F)cc3)cc2)c2ccccc2n1	inactive
CC(C)(C)n1cc(-c2ccnc(NCCNS(=O)(=O)c3cccc(F)c3)c2)c(-c2ccccc2)n1	inactive
C[C@]12CC[C@@H]3c4ccc(O)c([N+](=O)[O-])c4CC[C@H]3[C@@H]1CCC2=O	inactive
COc1ccc(-c2ccc3cnc4sc(-c5ccc(OC)cc5)nc4c3n2)cc1	inactive
CCOC(=O)c1cc2c(=O)oc3ccccc3c2oc1=O	inactive
CCOC(=O)C(=Cc1cccc(Cl)c1)C(=O)OCC	inactive
N=C(N)c1ccc(-c2ccc(-c3ccc(F)cc3)o2)o1	inactive
O=C(/C=C/c1ccccc1)c1cccc(OCCCOc2cccc(C(=O)/C=C/c3ccccc3)c2)c1	inactive
O=C(/C=C/c1ccc(Cl)cc1)c1cccc(Nc2nc(Nc3ccccc3)nc(Nc3ccccc3)n2)c1	inactive
CCS/C(Nc1ccccc1)=C(\C#N)C(=O)N/N=C/c1ccc(Cl)cc1Cl	inactive
COc1cc(OC)cc(C2=C3CC[C@@H]4[C@H](CC[C@]5(C)C(=O)CC[C@@H]45)C3=CC3C(O)c4cccnc4N4C(=O)COC234)c1 (stereo partly drawn)	inactive
COc1ccc2nc(NC(=O)CSc3nnc4n3S(=O)(=O)c3ccccc3N4C)sc2c1	inactive

----------
- Test system: SK-MEL-28 melanoma
- PROTOCOL_SUMMARY: NCI-60 one-dose screen, 48 h (100 = growth as untreated, 0 = no growth, -100 = all killed)
- CONDITION_LABEL: 10 µM unless noted
Compounds without any hit were thinned out: in the full panel of roughly 83,000, 20% have a hit. The source made the active and inactive calls. How the source made its calls: active means growth percent below 10; inactive means the rest.
A collection of compounds and their measured growth

SAMPLE_SMILES	growth
O=C(Nc1nn(-c2ccc(Cl)cc2Cl)nc1-c1ccccc1)c1ccccc1	104% (inactive)
CC(C)(C)c1cc(-c2nc3ccc(N4CCN(S(C)(=O)=O)CC4)cc3[nH]2)cc(C(C)(C)C)c1O	94.3% (inactive)
C#Cc1cccc(Nc2ncnc3ccc(-c4cncc(NS(C)(=O)=O)c4)cc23)c1	41.4% (inactive)
CC(C)c1ccc(NC(=O)Nc2ccc(NC(=O)CCCC(=O)NOCc3ccccc3)cc2)cc1	94.4% (inactive)
COc1ccc(-c2csc(NC(=O)CSc3nc(-c4ccccc4)cc(=O)[nH]3)n2)cc1	90.6% (inactive)
Cn1cc(-c2csc(-c3c[nH]c4ccc(Br)cc34)n2)c2cnccc21	-93.6% (active)
C=C(C)[C@@H]1CC[C@]2(C(=O)O)CC[C@]3(C)[C@H](CC[C@@H]4[C@@]5(C)C[C@@H](Cc6cn(CCO[C@@H]7O[C@H](COC(C)=O)[C@H](OC(C)=O)[C@H](OC(C)=O)[C@H]7OC(C)=O)nn6)[C@H](O)C(C)(C)[C@@H]5CC[C@]43C)[C@@H]12	76.5% (inactive)
CCOC(=O)c1c2c(n3ccc(C)cc13)C(=O)c1ccccc1C2=O	111% (inactive)

----------
- Tested on: KM12 colon
- PROTOCOL_SUMMARY: NCI-60 one-dose screen, 48 h
- CONDITION_LABEL: 10 µM unless noted
Compounds without any hit were thinned out: in the full panel of roughly 83,000, 20% have a hit. The source made the active and inactive calls. Rule for the calls: active = growth percent below 10; inactive = the rest.
Classes used: active, inactive

MOLECULE	ASSAY_SYSTEM	CATEGORY
Oc1c(Cl)cc(Cl)c2ccc(Cn3cc(-c4cc(C(F)(F)F)cc(C(F)(F)F)c4)nn3)nc12	KM12 colon	inactive
COc1cc(NC(C)CCCNC(C)C)c2ncccc2c1OC (centres undefined)	KM12 colon	inactive
COc1ccc2nc(NC(=O)CSc3nnc4n3S(=O)(=O)c3ccccc3N4C)sc2c1	KM12 colon	inactive
COc1cc(CNS(=O)(=O)c2ccc(C)cc2)ccc1OCc1cn(-c2ccc(Br)cc2)nn1	KM12 colon	inactive
COc1cc(CNC(=O)/C=C/C=C/c2ccc3c(c2)OCO3)ccc1OCc1cn(-c2ccc(C)c(C)c2)nn1	KM12 colon	inactive
CC1Cc2c(Cl)ncnc2N(C)c2ccc(F)cc21 (centres undefined)	KM12 colon	inactive
Cn1cc(-c2csc(-c3ccc(Cl)cc3)n2)c2cccnc21	KM12 colon	active
CCn1c(=S)sc2c(Nc3ccc(F)cc3)nc(-c3cccnc3)nc21	KM12 colon	inactive
CCn1cc(C(=O)N/N=C/c2cccs2)c(=O)c2cc(F)c(N3CCNC(C)C3)c(F)c21 (centres undefined)	KM12 colon	inactive
CC(C)CCC[C@@H](C)[C@H]1CC[C@H]2[C@@H]3CC=C4C[C@@H](C(C(=O)O)C(=O)O)CC[C@]4(C)[C@H]3CC[C@]12C	KM12 colon	active
COC(=O)c1cc(-c2ccc(S(C)(=O)=O)cc2)[nH]c1N/N=C/c1c(Cl)cccc1Cl	KM12 colon	inactive
COc1ccc(OC)c(-c2c(C#N)c(-c3cccs3)nc3c2c(-c2ccccc2)nn3-c2ccccc2)c1	KM12 colon	inactive
OCc1cccc(-c2ccc3ncc(-c4nc(NC5CC5)ncc4F)n3c2)c1	KM12 colon	active
CCCCCCCCCCCCCCCC(N)c1ccccc1 (centres undefined)	KM12 colon	active
Cn1c(-c2ccc(Br)cc2)c(O)c(=O)c2c(F)cccc21	KM12 colon	inactive
CC1(c2ccccc2O)NN=C(/N=C/c2cccc([N+](=O)[O-])c2)N1C(Cc1c[nH]c2ccccc12)C(=O)O (centres undefined)	KM12 colon	inactive
COc1ccc(C(=O)Nc2cccc(C3CC(=O)c4c(cc(OC)c(OC)c4OC)O3)c2)cc1 (centres undefined)	KM12 colon	inactive
COc1cccc([C@H]2c3[nH]c4ccccc4c3C[C@H]3C(=O)N(CCCCCCC(=O)NO)CC(=O)N23)c1	KM12 colon	inactive
O=C(Nn1c2c(sc1=NCc1ccccc1)C(=O)c1ccccc1C2=O)c1cc2ccc1CCc1ccc(cc1)CC2	KM12 colon	inactive
COc1cc(OC)cc(C2=C3CC[C@@H]4[C@H](CC[C@]5(C)C(=O)CC[C@@H]45)C3=CC3C(O)c4cccnc4N4C(=O)COC234)c1 (some centres undefined)	KM12 colon	inactive
C=CCc1c2c(c(OC)c3ccoc13)C(=O)/C(=C/c1ccccc1OC)O2	KM12 colon	inactive
CN(C)CCNc1nc2c3cc(Cl)ccc3nn2c2ccccc12	KM12 colon	inactive
C=C1C(=O)O[C@H]2[C@H]1CC/C(COC(=O)NCc1cc[nH]c1)=C\CC[C@@]1(C)O[C@@H]21	KM12 colon	inactive
O=C1/C(=C/c2ccc(Cl)cc2)COc2ccc(O)c(O)c21	KM12 colon	active

Hello, the source for this data is PubChem BioAssay (NCI), in case you need it.
